Recorded recombinant UMI read abundance (log10) by entry
test: recombinant UMI read abundance after kanamycin selection (control-corrected) (log10(CPM+1)); higher = more efficient recombination; extreme values may be limits of the assay; sequences stand for … in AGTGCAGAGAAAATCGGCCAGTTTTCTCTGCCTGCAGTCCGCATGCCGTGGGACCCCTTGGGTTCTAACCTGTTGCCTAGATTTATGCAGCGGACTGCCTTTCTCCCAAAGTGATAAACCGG…AGGTTGGTTTCACT; site = the 11-nt donor
Would you mind answering with just the numeric figure?

// known answers, use as guide
Residue Codes: GGAGTGCCATGGACCGGTTTTCCCGGTAATCCGTATTTGGT (site GGAGTGGCTAC)
recombinant UMI read abundance (log10): 0.00926
//
Residue Codes: GTTCGAACATGGACCGGTTTTCCCGGTAATCCGTATTTGGC (site GTTGGAACTGC)
recombinant UMI read abundance (log10): 0
//
Residue Codes: GGATTTACATGGACCGGTTTTCCCGGTAATCCGTATTTGAG (site GGATTTACTCT)
recombinant UMI read abundance (log10): 0.713
//
Residue Codes: TTATGCACATGGACCGGTTTTCCCGGTAATCCGTATTTGTA (site TTATGCACTTA)
recombinant UMI read abundance (log10): 0.769
//
Residue Codes: TAGCTATCATGGACCGGTTTTCCCGGTAATCCGTATTTGAA (site TAGCTATCTTT)
recombinant UMI read abundance (log10): 2.02

Output measured recombinant UMI read abundance (log10) for this item: TATTTGGCATGGACCGGTTTTCCCGGTAATCCGTATTTGAG (site TATTTGGCTCG)
0.012

Output measured recombinant UMI read abundance (log10) for this item: CTGCTAGCATGGACCGGTTTTCCCGGTAATCCGTATTTGCT (site CTGCTAGCTAG)
0

Output measured recombinant UMI read abundance (log10) for this item: TGCGGCACATGGACCGGTTTTCCCGGTAATCCGTATTTGGA (site TGCGGCACTTC)
0.0197

Output measured recombinant UMI read abundance (log10) for this item: CTGGACACATGGACCGGTTTTCCCGGTAATCCGTATTTGCA (site CTGGAAACTTG)
0.462

Output measured recombinant UMI read abundance (log10) for this item: CAAGTCACATGGACCGGTTTTCCCGGTAATCCGTATTTGGG (site CAAGACACTCC)
0.0192

Output measured recombinant UMI read abundance (log10) for this item: ATTTAGACATGGACCGGTTTTCCCGGTAATCCGTATTTGGT (site ATTAAGACTAC)
0.513

Output measured recombinant UMI read abundance (log10) for this item: CCTAATACATGGACCGGTTTTCCCGGTAATCCGTATTTGAC (site CCTAATACTGT)
0

----------
assay: recombinant barcode read abundance after kanamycin selection (control-corrected) (log10(CPM+1)); higher = more efficient recombination; sequences stand for … in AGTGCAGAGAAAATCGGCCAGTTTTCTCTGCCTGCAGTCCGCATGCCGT…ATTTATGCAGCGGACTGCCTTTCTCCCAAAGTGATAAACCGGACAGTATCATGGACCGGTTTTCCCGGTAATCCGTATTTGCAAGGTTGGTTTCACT; site = the 11-nt target
Recorded recombinant barcode read abundance (log10) by entry

// known answers, use as guide
Residue Codes: GGGCGGACTTGGGTTCTAACCTGTTGCGGCA [GGGCGGACTCC_LTGcore_CT_RTGcore_TG] (site GGGCGGACTCC) (LTG core: CT, RTG core: TG)
Recorded Result: 0.146

Residue Codes: GGGCGTGTCTGGGTTCTAACCTGTTGCCTGA [GGGCGTGCTAG_LTGcore_TC_RTGcore_TC] (site GGGCGTGCTAG) (LTG core: TC, RTG core: TC)
Recorded Result: 0.157

Residue Codes: CGCGCCCCTTGGGTTCTAACCTGTTGCGGGT [CGCGCCCCTCC_LTGcore_CT_RTGcore_AC] (site CGCGCCCCTCC) (LTG core: CT, RTG core: AC)
Recorded Result: 0.266

Output measured recombinant barcode read abundance (log10) for this item: TAGAGGGCTTGGGTTCTAACCTGTTGCGGCT [TAGAGGGCTCC_LTGcore_CT_RTGcore_AG] (site TAGAGGGCTCC) (LTG core: CT, RTG core: AG)
0.623

Output measured recombinant barcode read abundance (log10) for this item: ATGCTTTGGTGGGTTCTAACCTGTTGCCTAG [ATGCTTTCTAG_LTGcore_GG_RTGcore_CT] (site ATGCTTTCTAG) (LTG core: GG, RTG core: CT)
0.179

----------
experiment: recombinant barcode read abundance after kanamycin selection (control-corrected) (log10(CPM+1)); higher = more efficient recombination; sequences stand for … in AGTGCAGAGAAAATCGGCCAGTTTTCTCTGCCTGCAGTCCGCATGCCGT…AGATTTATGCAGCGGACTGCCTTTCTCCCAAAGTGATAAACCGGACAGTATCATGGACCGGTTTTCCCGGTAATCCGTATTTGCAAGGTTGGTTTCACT; site = the 11-nt target
Recorded recombinant barcode read abundance (log10) by entry
Would you mind answering with just the numeric figure?

Residue Codes: TGCGCCACTTGGGTTCTAACCTGTTGCCT (site TGCGCGACTAG)
Recorded Result: 0.0341
//
Residue Codes: GATTGTCCTTGGGTTCTAACCTGTTGCTT (site GATTGTCCTAA)
Recorded Result: 0.294
//
Residue Codes: TAGTGTCCTTGGGTTCTAACCTGTTGCAT (site TAGTGTCCTAT)
Recorded Result: 0.769
//
Residue Codes: GAGTCGCCTTGGGTTCTAACCTGTTGCGG (site GAGTTGCCTCC)
Recorded Result: 0.0886

Output measured recombinant barcode read abundance (log10) for this item: GAGTGGACTTGGGTTCTAACCTGTTGCGT (site GACCGGACTAC)
0.349

Output measured recombinant barcode read abundance (log10) for this item: TGGATGGCTTGGGTTCTAACCTGTTGCCT (site TGGATGGCTAG)
0.17

Output measured recombinant barcode read abundance (log10) for this item: CCACACTCTTGGGTTCTAACCTGTTGCCT (site CCACACTCTAG)
1.27

Output measured recombinant barcode read abundance (log10) for this item: TATTCTACTTGGGTTCTAACCTGTTGCGG (site TATTCTACTTC)
0.169

Output measured recombinant barcode read abundance (log10) for this item: CCTAAGACTTGGGTTCTAACCTGTTGCCT (site CCTAAGACTCG)
0.0786

Output measured recombinant barcode read abundance (log10) for this item: CGTCCGACTTGGGTTCTAACCTGTTGCAT (site CGTGCGACTAT)
0.0838

----------
assay: recombinant barcode read abundance after kanamycin selection (control-corrected) (log10(CPM+1)); higher = more efficient recombination; sequences stand for … in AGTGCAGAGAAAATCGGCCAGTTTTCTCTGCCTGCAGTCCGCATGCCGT…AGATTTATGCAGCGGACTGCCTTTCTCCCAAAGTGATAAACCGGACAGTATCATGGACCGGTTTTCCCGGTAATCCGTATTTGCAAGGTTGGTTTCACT; site = the 11-nt target
Quick rule for you: recombinant barcode read abundance (log10) at 0.5 or higher means true, lower means false.

Residue Codes: ACAGTGACTTGGGTTCTAACCTGTTGCCT (site ACAGTGACTAG)
Category: true
//
Residue Codes: GGGGCGCCTTGGGTTCTAACCTGTTGCCT (site GGGGCGCCTAG)
Category: true
//
Residue Codes: GGATAGCCTTGGGTTCTAACCTGTTGCCT (site TGATAGCCTAG)
Category: false

Read the next record carefully.
State whether the measured recombinant barcode read abundance (log10) reaches 0.5, counting equality as reaching it, for GCCAACCCTTGGGTTCTAACCTGTTGCTT (site GCCAACCCTAG)
false

----------
experiment: recombinant UMI read abundance after kanamycin selection (control-corrected) (log10(CPM+1)); higher = more efficient recombination; extreme values may be limits of the assay; sequences stand for … in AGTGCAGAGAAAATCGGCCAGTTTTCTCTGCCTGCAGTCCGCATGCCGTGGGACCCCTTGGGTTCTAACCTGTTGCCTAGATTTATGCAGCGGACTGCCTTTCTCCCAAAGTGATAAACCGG…AGGTTGGTTTCACT; site = the 11-nt donor
// class assignment uses recombinant UMI read abundance (log10) with these ranges: low group: < 0.01; middle group: ≥ 0.01 and < 2; high group: ≥ 2

Example entries and their recorded answers appear below.
Residue Codes: AGGTGGTCATGGACCGGTTTTCCCGGTAATCCGTATTTGCA (site AGGTGGTCTTG)
Category: high group

Residue Codes: CAGTCGACATGGACCGGTTTTCCCGGTAATCCGTATTTGGT (site CAGTCGACTAC)
Category: middle group

Residue Codes: TCAGTAGCATGGACCGGTTTTCCCGGTAATCCGTATTTGAT (site TCAGTAGCTAT)
Category: high group

Residue Codes: CAACTCCCATGGACCGGTTTTCCCGGTAATCCGTATTTGCT (site CAAGTCCCTAG)
Category: low group

Residue Codes: CCACACACATGGACCGGTTTTCCCGGTAATCCGTATTTGCA (site CCACACACTTG)
Category: high group

Residue Codes: AGCTCTGCATGGACCGGTTTTCCCGGTAATCCGTATTTGGT (site AGCTCTGCTAC)
Category: middle group

Determine which band this sequence sits in: CCGTTTACATGGACCGGTTTTCCCGGTAATCCGTATTTGCT (site CCGATTACTAG)
low group

Determine which band this sequence sits in: GGCCACACATGGACCGGTTTTCCCGGTAATCCGTATTTGTT (site GGCCACTCTAA)
low group

Determine which band this sequence sits in: TAGCACGCATGGACCGGTTTTCCCGGTAATCCGTATTTGGG (site AAGCACGCTCC)
middle group

Determine which band this sequence sits in: CTTATCTCATGGACCGGTTTTCCCGGTAATCCGTATTTGTA (site CTTGTCTCTTA)
middle group

Determine which band this sequence sits in: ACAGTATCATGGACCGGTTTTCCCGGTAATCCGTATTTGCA (site TCAGTATCTTG)
high group

Determine which band this sequence sits in: TGTTCCCCATGGACCGGTTTTCCCGGTAATCCGTATTTGTT (site TGTTCCCCTAA)
middle group

Determine which band this sequence sits in: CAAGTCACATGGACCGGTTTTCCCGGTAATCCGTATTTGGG (site CAAGTCACTAC)
middle group

Determine which band this sequence sits in: ATCCTTTCATGGACCGGTTTTCCCGGTAATCCGTATTTGAC (site ATCCTTTCTGT)
low group

Determine which band this sequence sits in: GGGATGACATGGACCGGTTTTCCCGGTAATCCGTATTTGAG (site GGGATGACTCT)
middle group

Determine which band this sequence sits in: CTAGTCACATGGACCGGTTTTCCCGGTAATCCGTATTTGAC (site CTAGTCACTGT)
high group
